- System: methicillin resistant Staphylococcus aureus (MRSA) biofilm
- Condition context: approximate peptide concentration […] (around 3 μg/ml); compared to untreated samples
Ends that are not written are not given here.
Please enter Met where % Biofilm inhibition is greater than or equal to 60%, and Not met where it is lower.

> print(dat)
                                   substance                             target.system  group.label
 1  1018-Q9: single substituted 1018 peptide (VRLIVAVRQWRR-NH2) [Peptide 1018-Q9]  methicillin resistant Staphylococcus aureus (MRSA) biofilm      Not met
 2  1002-R6: single substituted 1002 peptide (VQRWLRVWRIRK-NH2) [Peptide 1002-R6]  methicillin resistant Staphylococcus aureus (MRSA) biofilm      Not met
 3  HH2-V2: single substituted HH2 peptide (VVLRIRVAVIRA-NH2)  methicillin resistant Staphylococcus aureus (MRSA) biofilm          Met
 4  1018-A3: single substituted 1018 peptide (VRAIVAVRIWRR-NH2) [Peptide 1018-A3]  methicillin resistant Staphylococcus aureus (MRSA) biofilm      Not met
 5  HH2-G1: single substituted HH2 peptide (GQLRIRVAVIRA-NH2)  methicillin resistant Staphylococcus aureus (MRSA) biofilm          Met
 6  HH2-I4: single substituted HH2 peptide (VQLIIRVAVIRA-NH2)  methicillin resistant Staphylococcus aureus (MRSA) biofilm      Not met
 7  1002-K7: single substituted 1002 peptide (VQRWLIKWRIRK-NH2) [Peptide 1002-K7]  methicillin resistant Staphylococcus aureus (MRSA) biofilm      Not met
 8  1018-L12: single substituted 1018 peptide (VRLIVAVRIWRL-NH2) [Peptide 1018-L12]  methicillin resistant Staphylococcus aureus (MRSA) biofilm      Not met
 9  1002-I8: single substituted 1002 peptide (VQRWLIVIRIRK-NH2) [Peptide 1002-I8]  methicillin resistant Staphylococcus aureus (MRSA) biofilm          Met
10  1002-R1: single substituted 1002 peptide (RQRWLIVWRIRK-NH2) [Peptide 1002-R1]  methicillin resistant Staphylococcus aureus (MRSA) biofilm          Met
11  HH2-V8: single substituted HH2 peptide (VQLRIRVVVIRA-NH2)  methicillin resistant Staphylococcus aureus (MRSA) biofilm          Met
12  1002-I9: single substituted 1002 peptide (VQRWLIVWIIRK-NH2) [Peptide 1002-I9]  methicillin resistant Staphylococcus aureus (MRSA) biofilm      Not met
13  1002-A2: single substituted 1002 peptide (VARWLIVWRIRK-NH2) [Peptide 1002-A2]  methicillin resistant Staphylococcus aureus (MRSA) biofilm          Met
14  HH2-Q3: single substituted HH2 peptide (VQQRIRVAVIRA-NH2)  methicillin resistant Staphylococcus aureus (MRSA) biofilm      Not met
15  1018-K12: single substituted 1018 peptide (VRLIVAVRIWRK-NH2) [Peptide 1018-K12]  methicillin resistant Staphylococcus aureus (MRSA) biofilm          Met
16  1002-V8: single substituted 1002 peptide (VQRWLIVVRIRK-NH2) [Peptide 1002-V8]  methicillin resistant Staphylococcus aureus (MRSA) biofilm      Not met
17  1018-R4: single substituted 1018 peptide (VRLRVAVRIWRR-NH2) [Peptide 1018-R4]  methicillin resistant Staphylococcus aureus (MRSA) biofilm      Not met
18  HH2-R3: single substituted HH2 peptide (VQRRIRVAVIRA-NH2)  methicillin resistant Staphylococcus aureus (MRSA) biofilm      Not met
19  HH2-Q7: single substituted HH2 peptide (VQLRIRQAVIRA-NH2)  methicillin resistant Staphylococcus aureus (MRSA) biofilm      Not met
20  1002-G8: single substituted 1002 peptide (VQRWLIVGRIRK-NH2) [Peptide 1002-G8]  methicillin resistant Staphylococcus aureus (MRSA) biofilm      Not met
21  HH2-V6: single substituted HH2 peptide (VQLRIVVAVIRA-NH2)  methicillin resistant Staphylococcus aureus (MRSA) biofilm      Not met
22  HH2-R9: single substituted HH2 peptide (VQLRIRVARIRA-NH2)  methicillin resistant Staphylococcus aureus (MRSA) biofilm          Met
23  1018-Q12: single substituted 1018 peptide (VRLIVAVRIWRQ-NH2) [Peptide 1018-Q12]  methicillin resistant Staphylococcus aureus (MRSA) biofilm      Not met
24  HH2-W4: single substituted HH2 peptide (VQLWIRVAVIRA-NH2)  methicillin resistant Staphylococcus aureus (MRSA) biofilm      Not met
25  1002-K10: single substituted 1002 peptide (VQRWLIVWRKRK-NH2) [Peptide 1002-K10]  methicillin resistant Staphylococcus aureus (MRSA) biofilm      Not met
26  1002-Q12: single substituted 1002 peptide (VQRWLIVWRIRQ-NH2) [Peptide 1002-Q12]  methicillin resistant Staphylococcus aureus (MRSA) biofilm          Met
27  1018-A2: single substituted 1018 peptide (VALIVAVRIWRR-NH2) [Peptide 1018-A2]  methicillin resistant Staphylococcus aureus (MRSA) biofilm          Met
28  1002-G10: single substituted 1002 peptide (VQRWLIVWRGRK-NH2) [Peptide 1002-G10]  methicillin resistant Staphylococcus aureus (MRSA) biofilm      Not met

----------
- Test system: LPS-stimulated human peripheral blood mononuclear cells (IL1-β)
- Assay type: cell-based
- Condition context: Table 12; cells stimulated with 10 ng/ml LPS; LPS alone 1313 (HH2 derivatives), 1927 (1018 derivatives), 2455 (1002 and hybrid peptides) pg/ml
Ends that are not written are not given here.
Parameter measured: IL1β Production (pg/mL)

> print(dat)
                                  substance                             target.system  experimental.value
1  HH2-V6: single substituted HH2 peptide (VQLRIVVAVIRA-NH2)  LPS-stimulated human peripheral blood mononuclear cells (IL1-β)                 694
2  HH2-W12: single substituted HH2 peptide (VQLRIRVAVIRW-NH2)  LPS-stimulated human peripheral blood mononuclear cells (IL1-β)                 420
3  1018-I10: single substituted 1018 peptide (VRLIVAVRIIRR-NH2) [Peptide 1018-I10]  LPS-stimulated human peripheral blood mononuclear cells (IL1-β)                 135
4  1002-V5: single substituted 1002 peptide (VQRWVIVWRIRK-NH2) [Peptide 1002-V5]  LPS-stimulated human peripheral blood mononuclear cells (IL1-β)                 440
5  HH2-R9: single substituted HH2 peptide (VQLRIRVARIRA-NH2)  LPS-stimulated human peripheral blood mononuclear cells (IL1-β)                2099
6  HH2-A5: single substituted HH2 peptide (VQLRARVAVIRA-NH2)  LPS-stimulated human peripheral blood mononuclear cells (IL1-β)                2095
7  1018-V9: single substituted 1018 peptide (VRLIVAVRVWRR-NH2) [Peptide 1018-V9]  LPS-stimulated human peripheral blood mononuclear cells (IL1-β)                 142
8  1002-L12: single substituted 1002 peptide (VQRWLIVWRIRL-NH2) [Peptide 1002-L12]  LPS-stimulated human peripheral blood mononuclear cells (IL1-β)                 127

----------
- Tested on: methicillin resistant Staphylococcus aureus (MRSA) biofilm
- Condition context: approximate peptide concentration […] (around 3 μg/ml); compared to untreated samples
Ends that are not written are not given here.
substances and their reported % Biofilm inhibition
Parameter measured: % Biofilm inhibition (%)

> print(dat)
                                   substance  experimental.value
 1  1002-A4: single substituted 1002 peptide (VQRALIVWRIRK-NH2) [Peptide 1002-A4]                  52
 2  1018-K3: single substituted 1018 peptide (VRKIVAVRIWRR-NH2) [Peptide 1018-K3]                  15
 3  HH2-A11: single substituted HH2 peptide (VQLRIRVAVIAA-NH2)                  64
 4  1018-L10: single substituted 1018 peptide (VRLIVAVRILRR-NH2) [Peptide 1018-L10]                  38
 5  1002-K4: single substituted 1002 peptide (VQRKLIVWRIRK-NH2) [Peptide 1002-K4]                   0
 6  1002-G11: single substituted 1002 peptide (VQRWLIVWRIGK-NH2) [Peptide 1002-G11]                  60
 7  1002-R5: single substituted 1002 peptide (VQRWRIVWRIRK-NH2) [Peptide 1002-R5]                  62
 8  HH2-W5: single substituted HH2 peptide (VQLRWRVAVIRA-NH2)                  63
 9  1018-V11: single substituted 1018 peptide (VRLIVAVRIWVR-NH2) [Peptide 1018-V11]                  29
10  1002-R4: single substituted 1002 peptide (VQRRLIVWRIRK-NH2) [Peptide 1002-R4]                  36
11  1018-Q7: single substituted 1018 peptide (VRLIVAQRIWRR-NH2) [Peptide 1018-Q7]                  28
12  1018-A9: single substituted 1018 peptide (VRLIVAVRAWRR-NH2) [Peptide 1018-A9]                  49
13  HH2-K6: single substituted HH2 peptide (VQLRIKVAVIRA-NH2)                  64
14  HH2-V5: single substituted HH2 peptide (VQLRVRVAVIRA-NH2)                  50
15  1002-G12: single substituted 1002 peptide (VQRWLIVWRIRG-NH2) [Peptide 1002-G12]                  50
16  HH2-W7: single substituted HH2 peptide (VQLRIRWAVIRA-NH2)                  70
